These entries and their values trace back to ChEMBL document CHEMBL3433997.

molecular target: Hexose transporter 1 (Plasmodium falciparum); test: ST_JUDE_LEISH: Cytotoxicity at 2uM final concentration against transgenic Leishmania Mexicana promastigotes LmPfHT that are glucose transport deficient and complemented with the Plasmodium falciparum hexose transporter. Activity is measured by DNA content using SYBR green in vitro; type: functional
Recorded inhibition values for a group of molecules are listed next.
metric: inhibition (%)

molecule	unitText	endpointValue
C=CCOc1ccc(Cc2cnc(N)nc2N)cc1CCC	%	4.62
Nc1ncc(-c2cccc(CCN3CCOCC3)c2)cc1-c1nc2cc(Br)ccc2[nH]1	%	9.95
CC(=O)c1ccc(NC(=O)Nc2ccc(N(C)c3ccnc(NC4CC4)n3)cc2)cc1	%	-3.95
Cc1cccn2c(=O)c3cc(C(=O)NCc4cccnc4)c(=N)n(CCc4ccccc4)c3nc12	%	4.08
COc1ccc(Cn2cncc2CN(CCC(C)C)C(=O)c2ccc(Cl)nc2Cl)cc1	%	2.14
CCOc1c(Br)cc(C)cc1CNCCCNc1nc2ccccc2[nH]1	%	-0.49
O=C(Nc1ccc(OC2CCN(Cc3ccccc3)C2)c(Cl)c1)c1cccs1 (stereo not given)	%	1.06
CCc1n[nH]c(C(=O)Nc2cccc(N3CCCC3)c2)c1C	%	1.73
COc1ccc(CNC(=O)NC2CCN(c3ccnc(Nc4ccc(F)cc4)n3)CC2)cc1	%	1.1
CCN(Cc1ccc(-c2ccc(C(F)(F)F)cc2)cc1)C(=O)Cn1c(SCc2cccc(F)c2F)cc(=O)c2cc(CN3CCCCC3)ccc21	%	0.7
